Tested on: PfAP2-I AP2 domain 3 (GST-tagged)
Assay: gcPBM binding intensity (ln(normalized median fluorescence intensity)); higher = stronger DNA binding
Over roughly 25,000 sequences, “ln(normalized median fluorescence intensity)” has its median near 7.9; the highest 2% begin near 11. The sample holds the highest values, similar sequences and a random draw of the others, so the mix is not that of the screen.
Returns one of Met or Not met; Met when gcPBM binding intensity (ln) is >= 8.

For this sequence, is measured gcPBM binding intensity (ln) 8 or higher? ATTTTTTTTTAATGCAATATATTTTGAAAATTTTAT [CACACA_negctrl_site753]
Met

For this sequence, is measured gcPBM binding intensity (ln) 8 or higher? AAAAGGAGAAATATTGCACACGTGCAAAATGGTATG [CACACA_site4300]
Met

For this sequence, is measured gcPBM binding intensity (ln) 8 or higher? TATGTATTAATGAGAACATGCAAAATAATAAACAAT [TGCATGCA_site362]
Met

For this sequence, is measured gcPBM binding intensity (ln) 8 or higher? ATGTATGCAAAAATGGTGCATATTAAATGTATAACA [GTGCAC_site9722]
Met

For this sequence, is measured gcPBM binding intensity (ln) 8 or higher? TTTTCTCTAAAAAGGTGTACAACTAATAATGCACTG [XGTACX_site6074]
Met

For this sequence, is measured gcPBM binding intensity (ln) 8 or higher? TCTTTTTTTTCTTTTTTTTTATTTAAATATCAAGTA [CACACA_negctrl_site1354]
Not met

For this sequence, is measured gcPBM binding intensity (ln) 8 or higher? AAAAATAAACAATATATAGTTATATATATATATATA [TGCATGCA_negctrl_site82]
Met

For this sequence, is measured gcPBM binding intensity (ln) 8 or higher? TAATAATATAAATATGCACACAAATTATTACCCAAA [CACACA_site8805]
Met

For this sequence, is measured gcPBM binding intensity (ln) 8 or higher? AAGGAGAAATATTGCACACGTGCAAAATGGTATGAG [CACACA_site259]
Met

For this sequence, is measured gcPBM binding intensity (ln) 8 or higher? GTATTATATATATAGGTGCATATATATATATAAATA [GTGCAC_site9787]
Met

For this sequence, is measured gcPBM binding intensity (ln) 8 or higher? CTATTTAAAATATGAACACACATTATTTGTTTTAGA [CACACA_site2713]
Not met

For this sequence, is measured gcPBM binding intensity (ln) 8 or higher? TATTCAATACTTAATGCACACAATAAAAAAAATATG [CACACA_site2467]
Met

---

Test system: PfAP2-I AP2 domain 3 (GST-tagged)
Assay: gcPBM binding intensity (ln(normalized median fluorescence intensity)); higher = stronger DNA binding
In all, about 25,000 sequences were measured (“ln(normalized median fluorescence intensity)”: median about 7.9, highest 2% from about 11 on). Shown is part of a subset that was picked to be rich in the highest values.
Returns one of Fulfilled or Not fulfilled; Fulfilled when gcPBM binding intensity (ln) is >= 9.

For this sequence, is measured gcPBM binding intensity (ln) 9 or higher? ATATATATATTAAAGGTGCACAAATAAATATATACA [GTGCAC_site9532]
Fulfilled

For this sequence, is measured gcPBM binding intensity (ln) 9 or higher? ATAAAATATAAAAACGCACACAATTATAAGGGTGTA [CACACA_site177]
Not fulfilled

For this sequence, is measured gcPBM binding intensity (ln) 9 or higher? ATCTGTCGACAGGACAGTACACAGTAGCCAGTAACT [XGTACX_site2001]
Not fulfilled

For this sequence, is measured gcPBM binding intensity (ln) 9 or higher? AAAAAATATTATATATGTACATAATATTTTTTTTTT [XGTACX_site5909]
Not fulfilled

For this sequence, is measured gcPBM binding intensity (ln) 9 or higher? ACAAAAAAATAAGGTGCACACAAAAAAAAAAAAAAA [CACACA_site8171]
Fulfilled

For this sequence, is measured gcPBM binding intensity (ln) 9 or higher? GATAGATAATATTTTAGTACATAAACAATTAAATAT [XGTACX_site4125]
Not fulfilled

For this sequence, is measured gcPBM binding intensity (ln) 9 or higher? TTATTTTTGTTTTGAAGTACAAAAAAATATATTCTT [XGTACX_site6416]
Not fulfilled

For this sequence, is measured gcPBM binding intensity (ln) 9 or higher? AATAAATAGATAAGCACACAAGCATATAGACATATA [CACACA_site222]
Not fulfilled

For this sequence, is measured gcPBM binding intensity (ln) 9 or higher? ATATATATGTATACATGTACATATTTTATTATGTGC [XGTACX_site7207]
Not fulfilled

For this sequence, is measured gcPBM binding intensity (ln) 9 or higher? TTATAAAAGACAAAAGTGCATATATACATATGTATA
Fulfilled

For this sequence, is measured gcPBM binding intensity (ln) 9 or higher? AAAAAAATAAGGTGCACACAAAAAAAAAAAAAAAAA [CACACA_site812]
Fulfilled

For this sequence, is measured gcPBM binding intensity (ln) 9 or higher? TTCTTGTTCCTGAAAGTGCATATAACAAAAATAACA [GTGCAC_site9635]
Fulfilled

---

System: PfAP2-I AP2 domain 3 (GST-tagged)
Assay: gcPBM binding intensity (ln(normalized median fluorescence intensity)); higher = stronger DNA binding
Whole data set: some 25,000 sequences, median “ln(normalized median fluorescence intensity)” near 7.9, cut for the highest 2% near 11. Shown is part of a subset that was picked to be rich in the highest values.
Measure: gcPBM binding intensity (ln)

State the recorded gcPBM binding intensity (ln) for this entry: AATAGTAAAAATCACTGTACGTTTATTTTTAAAATG [XGTACX_site1035]
7.79

State the recorded gcPBM binding intensity (ln) for this entry: CGTTGTAGGGAATGTAGTACAGTTATTATTTTATTA [XGTACX_site2429]
7.88

State the recorded gcPBM binding intensity (ln) for this entry: AATTCTTTACTATTCACACATATAAATATTCACTTT [CACACA_site4886]
8

State the recorded gcPBM binding intensity (ln) for this entry: CGGACATACTAACGGACACACGTAAGAAAAAAAAAG [CACACA_site4504]
7.79

State the recorded gcPBM binding intensity (ln) for this entry: TACACATAATATAATGCATGTGTGATGTATGTTTAA [TGCATGCA_site697]
8.09

State the recorded gcPBM binding intensity (ln) for this entry: TCATATATATTATACACACACATATATAAATATATA [CACACA_site967]
7.87

State the recorded gcPBM binding intensity (ln) for this entry: ATATTGCTTATTTGATGTACGAATACACTAGTATTA [XGTACX_site4536]
7.79

State the recorded gcPBM binding intensity (ln) for this entry: TATAAATACATACGTACACACAAATATTAAAATATA [CACACA_site5129]
7.91

State the recorded gcPBM binding intensity (ln) for this entry: TAGGGATTATACCACACACACATACACATAAATATA [CACACA_site3178]
7.86

State the recorded gcPBM binding intensity (ln) for this entry: TTATATGCATAAAAAGGTACACATATATAAATAAAT [XGTACX_site6894]
8.23

State the recorded gcPBM binding intensity (ln) for this entry: AAATATATATAAAACTCACACATTATCTTATAACCA [CACACA_site5268]
7.83

---

System: PfAP2-I AP2 domain 3 (GST-tagged)
Assay: gcPBM binding intensity (ln(normalized median fluorescence intensity)); higher = stronger DNA binding
The full ranking holds about 25,000 sequences; the median of “ln(normalized median fluorescence intensity)” is about 7.9, and the highest 2% start at about 11. The entries come from a sample that favours the highest values as a whole.
Returns one of 1.0 or 0.0; 1.0 when gcPBM binding intensity (ln) is >= 8.

For this sequence, is measured gcPBM binding intensity (ln) 8 or higher? ATGAATACAAAATTATACAAAATTATCAAAAGTATG [CACACA_negctrl_site1453]
0.0

For this sequence, is measured gcPBM binding intensity (ln) 8 or higher? CCGTACAATTTTGTCACACATAAAATACTTATGTAT [CACACA_site4871]
0.0

For this sequence, is measured gcPBM binding intensity (ln) 8 or higher? ATATATTTTTATATAGTGCAAGTAATAAAAAGGAAT
1.0

For this sequence, is measured gcPBM binding intensity (ln) 8 or higher? TACTTCATATAATTAGCACACAATAATTTCTCATTT [CACACA_site2872]
1.0

For this sequence, is measured gcPBM binding intensity (ln) 8 or higher? TATATATATATGTGCACACATATATAATATGTATAA [CACACA_site715]
1.0

For this sequence, is measured gcPBM binding intensity (ln) 8 or higher? TTTATTCAAGGAATAGTGCATAATAATAAGTATTAT
1.0
